assay: Drug metabolism in BALB/c mouse whole blood assessed as whole blood phosphate area ratio at 10 uM after 4 hrs by LC/MS/MS analysis; format: ADME, tissue-based
reported_endpoint: Ratio

CCCCCCC1CCc2cc(C3CCC(N)(CO)C3)ccc2C1 (stereo in doubt; 3g) = 0.02
CCCCCCC1CCc2cc(C3CCC(N)(CO)C3)ccc2C1 (stereo in doubt; 3e) = 0.03

(I) CCCCCC[C@@H]1CCc2cc([C@H]3CC[C@](N)(CO)C3)ccc2C1
(II) CCCCCCC1CCc2cc(C3CCC(N)(CO)C3)ccc2C1 (stereo in doubt; 3b)
Given the two records I and II , choose the one whose Ratio value is lower. Respond with the label that goes with your answer. I
(I: 0.6, II: 1.6)

Reference source: ChEMBL document CHEMBL3804777
